test: in vivo; design: species or system mice; settings: mouse, po, 100 mg/kg, 60 min
Counter-ions that a name gives are not always drawn.
Plasma level of non-ester 1 hr reference
State just the number; it will be interpreted in ng/mL.

molecule: CC(OC(=O)CC1CCCC1)OC(=O)C1=C(CSc2nnnn2CCN(C)C)CS[C@@H]2[C@H](NC(=O)Cc3csc(N)n3)C(=O)N12 (some centres unmarked) [Compound No. 6, dihydrochloride]
Plasma level of non-ester 1 hr [ng/mL]: 16900

Query block: Endpoint output: Plasma level of non-ester 1 hr of CC(OC(=O)C1=C(CSc2nnnn2CCN(C)C)CS[C@@H]2[C@H](NC(=O)Cc3csc(N)n3)C(=O)N12)OC(=O)C1CCCC1 (some centres unmarked) [Compound No. 8, dihydrochloride] . Value?
Result block: 10500

Query block: Here is the next molecule: CC(OC(=O)C1=C(CSc2nnnn2CCN(C)C)CS[C@@H]2[C@H](NC(=O)Cc3csc(N)n3)C(=O)N12)OC(=O)C1CCCCC1 (some centres unmarked) [Compound No. 4, dihydrochloride]
Result block: 8380

Query block: Ok, now CN(C)CCn1nnnc1SCC1=C(C(=O)OCOC(=O)C(C)(C)C)N2C(=O)[C@@H](NC(=O)Cc3csc(N)n3)[C@H]2SC1 [Compound A, pivaloyloxymethyl ester of compound (II), reference compound]
Result block: 6100

Query block: Query CC(OC(=O)CC1CCCCC1)OC(=O)C1=C(CSc2nnnn2CCN(C)C)CS[C@@H]2[C@H](NC(=O)Cc3csc(N)n3)C(=O)N12 (some centres unmarked) [Compound No. 2, dihydrochloride] next
Result block: 16400

====

assay: in vivo; set-up: species or system mice; settings: mouse, po, 100 mg/kg, 30 min
Counter-ions that a name gives are not always drawn.
measurement type: Plasma level of non-ester 0.5 hr (ng/mL)
Number only, in ng/mL; omit the unit.

molecule: CC(OC(=O)C1=C(CSc2nnnn2CCN(C)C)CS[C@@H]2[C@H](NC(=O)Cc3csc(N)n3)C(=O)N12)OC(=O)C1CCCCC1 (some centres unmarked) [Compound No. 4, dihydrochloride]
result units: ng/mL
Plasma level of non-ester 0.5 hr: 31700

molecule: CN(C)CCn1nnnc1SCC1=C(C(=O)OCOC(=O)C(C)(C)C)N2C(=O)[C@@H](NC(=O)Cc3csc(N)n3)[C@H]2SC1 [Compound A, pivaloyloxymethyl ester of compound (II), reference compound]
result units: ng/mL
Plasma level of non-ester 0.5 hr: 16200

molecule: CC(OC(=O)C1=C(CSc2nnnn2CCN(C)C)CS[C@@H]2[C@H](NC(=O)Cc3csc(N)n3)C(=O)N12)OC(=O)C1CCCC1 (some centres unmarked) [Compound No. 8, dihydrochloride]
result units: ng/mL
Plasma level of non-ester 0.5 hr: 29900

molecule: CC(OC(=O)CC1CCCCC1)OC(=O)C1=C(CSc2nnnn2CCN(C)C)CS[C@@H]2[C@H](NC(=O)Cc3csc(N)n3)C(=O)N12 (some centres unmarked) [Compound No. 2, dihydrochloride]
result units: ng/mL
Plasma level of non-ester 0.5 hr: 45200

Now for the molecule whose Plasma level of non-ester 0.5 hr we want.
Query block: Query: Plasma level of non-ester 0.5 hr; subject: CC(OC(=O)CC1CCCC1)OC(=O)C1=C(CSc2nnnn2CCN(C)C)CS[C@@H]2[C@H](NC(=O)Cc3csc(N)n3)C(=O)N12 (some centres unmarked) [Compound No. 6, dihydrochloride]
Result block: 27200
